# study_target: HIV-1 pseudovirus SC05.8C11.2344 (HIV-1)
# experiment_description: cell-based or functional assay
I'd appreciate it if you could supply IC80 (neutralization in TZM.bl cells) values for the items below.
One number for each entry, in µg/mL.

These recorded examples may help you get a feel for the data.
Exam item: Give me measured IC80 (neutralization in TZM.bl cells), please, for this binder: MS-88 (antibody, V domains shown) VH: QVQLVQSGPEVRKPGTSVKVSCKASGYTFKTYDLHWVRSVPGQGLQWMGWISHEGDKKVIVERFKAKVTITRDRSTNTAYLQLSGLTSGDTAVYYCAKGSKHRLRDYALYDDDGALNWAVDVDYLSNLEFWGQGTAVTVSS VL: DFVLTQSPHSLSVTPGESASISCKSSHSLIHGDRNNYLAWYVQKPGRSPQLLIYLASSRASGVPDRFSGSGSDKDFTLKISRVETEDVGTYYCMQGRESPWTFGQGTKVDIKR
Marked response: 7.31

Exam item: Give me measured IC80 (neutralization in TZM.bl cells), please, for this binder: MS-75 (antibody, V domains shown) VH: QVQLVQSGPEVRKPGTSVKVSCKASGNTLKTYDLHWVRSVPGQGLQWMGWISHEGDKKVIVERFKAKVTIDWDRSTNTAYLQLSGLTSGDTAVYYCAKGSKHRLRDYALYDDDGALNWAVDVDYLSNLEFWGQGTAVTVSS VL: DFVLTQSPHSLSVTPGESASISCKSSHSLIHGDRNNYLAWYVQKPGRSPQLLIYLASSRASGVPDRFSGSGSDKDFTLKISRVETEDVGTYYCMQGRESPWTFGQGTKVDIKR
Marked response: 3.72

Exam item: Give me measured IC80 (neutralization in TZM.bl cells), please, for this binder: MS-70 (antibody, V domains shown) VH: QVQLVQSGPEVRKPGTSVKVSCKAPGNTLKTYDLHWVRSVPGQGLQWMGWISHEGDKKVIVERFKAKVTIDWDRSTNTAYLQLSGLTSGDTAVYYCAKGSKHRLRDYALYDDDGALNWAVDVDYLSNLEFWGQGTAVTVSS VL: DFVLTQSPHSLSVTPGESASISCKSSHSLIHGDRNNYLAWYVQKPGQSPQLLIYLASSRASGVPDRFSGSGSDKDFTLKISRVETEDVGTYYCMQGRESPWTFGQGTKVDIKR
Marked response: 1.36

Exam item: Give me measured IC80 (neutralization in TZM.bl cells), please, for this binder: MS-82 (antibody, V domains shown) VH: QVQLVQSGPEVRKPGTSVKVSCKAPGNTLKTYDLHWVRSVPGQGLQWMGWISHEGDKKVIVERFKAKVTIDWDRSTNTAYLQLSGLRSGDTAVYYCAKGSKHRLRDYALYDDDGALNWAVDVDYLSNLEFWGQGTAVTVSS VL: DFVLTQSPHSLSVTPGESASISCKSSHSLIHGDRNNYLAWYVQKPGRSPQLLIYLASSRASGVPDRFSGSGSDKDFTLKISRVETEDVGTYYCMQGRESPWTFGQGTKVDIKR
Marked response: 1.8

Field: next binder
Exam item: Give me measured IC80 (neutralization in TZM.bl cells), please, for this binder: MS-76 (antibody, V domains shown) VH: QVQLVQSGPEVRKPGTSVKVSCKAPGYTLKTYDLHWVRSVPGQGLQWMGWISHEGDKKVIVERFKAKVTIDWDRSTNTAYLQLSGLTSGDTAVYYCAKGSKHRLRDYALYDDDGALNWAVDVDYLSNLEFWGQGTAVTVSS VL: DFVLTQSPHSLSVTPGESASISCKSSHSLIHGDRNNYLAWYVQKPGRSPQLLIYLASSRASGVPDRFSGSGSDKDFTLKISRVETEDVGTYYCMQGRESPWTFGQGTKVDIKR
Marked response: 2.57
